molecular target: UniProtKB P48048; assay: Thallium Flux Assay (ROMK channel functional thallium flux, FLIPR-Tetra); conditions: HEK293 cells stably expressing hROMK (hKir1.1)
Measured IC50 values are reported for all entries that follow.

| Compound | System tested | IC50 (nM) |
| --- | --- | --- |
| Cc1c([C@H]2CN3CCN(C(=O)C4CCc5cc(-n6cnnn6)ncc54)C[C@@H]3CN2)ccc(F)c1C#N (stereo partly drawn) [Example 104] | UniProtKB P48048 | 360 |
| O=C1OCCc2cc([C@@H]3CN4CCN(C(=O)C5CCc6cc(-n7cnnn7)ncc65)C[C@H]4CO3)ccc21 (stereo partly drawn) [Example 45] | UniProtKB P48048 | 600 |
| Cc1c([C@@H]2CN3CCN(C(=O)C4CCc5cc(-n6cnnn6)cnc54)C[C@@H]3CO2)ccc(F)c1C#N (stereo partly drawn) [Example 91] | UniProtKB P48048 | 550 |
| Cc1c([C@H]2CN3CCN(C(=O)C4CCc5nc(-n6cnnn6)ncc54)C[C@H]3CO2)ccc(F)c1C#N (single isomer, unassigned) [Example 2H] | UniProtKB P48048 | 140 |
| N#Cc1c(F)ccc([C@H]2CN3CCN(C(=O)C4CCc5nc(-n6cnnn6)ccc54)C[C@H]3CO2)c1F (stereo partly drawn) [Example 19] | UniProtKB P48048 | 420 |
| N#Cc1c(F)ccc([C@@H]2CN3CCN(C(=O)C4CCc5cc(-n6cnnn6)ncc54)C[C@H]3CO2)c1F (stereo partly drawn) [Example 22] | UniProtKB P48048 | 160 |

* * *

// reported pIC50 per item
target: Kir1.1 (ROMK1) (Homo sapiens (Human), UniProt P48048); test: Electrophysiology Assay (whole cell voltage clamp, IonWorks Quattro); settings: Chinese hamster ovary cells stably expressing Kir1.1; block during voltage step to 0 mV
Sequence (P48048 whole entry): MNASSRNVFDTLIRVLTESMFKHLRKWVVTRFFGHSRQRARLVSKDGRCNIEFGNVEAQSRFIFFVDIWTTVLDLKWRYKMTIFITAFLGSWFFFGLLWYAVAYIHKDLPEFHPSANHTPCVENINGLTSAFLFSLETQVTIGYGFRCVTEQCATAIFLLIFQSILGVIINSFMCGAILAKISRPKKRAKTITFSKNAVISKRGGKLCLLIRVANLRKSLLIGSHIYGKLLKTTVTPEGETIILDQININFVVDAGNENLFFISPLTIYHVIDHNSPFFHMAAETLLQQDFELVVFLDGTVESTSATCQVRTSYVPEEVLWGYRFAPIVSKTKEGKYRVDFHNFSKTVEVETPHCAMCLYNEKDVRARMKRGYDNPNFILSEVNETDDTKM
pIC50: −log10 of the molar value.
Readout label: pIC50

| Compound | Reported result |
| --- | --- |
| Cc1c([C@@H]2CN3CCN(C(=O)C4CCc5cc(-n6cnnn6)ncc54)C[C@H]3CN2)ccc(F)c1C#N (single isomer, unassigned) [Example 96A] | 7.00 |
| N#Cc1c(F)ccc([C@@H]2CN3CCN(C(=O)C4CCc5nc(-n6cnnn6)ccc54)C[C@@H]3CO2)c1Cl (stereo partly drawn) [Example 64] | 7.00 |
| Cc1c(C2CN3CCN(C(=O)[C@H]4CCc5nc(-n6cnnn6)ncc54)C[C@@H]3CO2)ccc(F)c1C#N (stereo in doubt) | 7.00 |

* * *

target: hROMK (hKir1.1) (Homo sapiens (Human), UniProt P48048); assay: Thallium Flux Assay (ROMK channel functional thallium flux, FLIPR-Tetra); details: HEK293 cells stably expressing hROMK (hKir1.1)
Sequence (P48048 whole entry): as above

| Compound | System tested | IC50 / µM |
| --- | --- | --- |
| Cc1c([C@H]2CN3CCN(C(=O)C4CCc5nc(-n6cnnn6)ccc54)C[C@H]3CO2)ccc(F)c1C#N (some centres unmarked) [Example 5] | hROMK (hKir1.1) (Homo sapiens (Human), UniProt P48048) | 0.17 |
| N#Cc1c(F)ccc([C@H]2CN3CCN(C(=O)C4CCc5nc(-n6cnnn6)ccc54)C[C@@H]3CO2)c1F (some centres unmarked) [Example 21] | hROMK (hKir1.1) (Homo sapiens (Human), UniProt P48048) | 0.24 |
| Cc1c([C@@H]2CN3CCN(C(=O)C4CCc5cc(-n6cnnn6)cnc54)C[C@H]3CN2)ccc(F)c1C#N (some centres unmarked) [Example 99] | hROMK (hKir1.1) (Homo sapiens (Human), UniProt P48048) | 0.43 |
| COc1cc(F)c([C@H]2CN3CCN(C(=O)C4CCc5nc(-n6cnnn6)ccc54)C[C@@H]3CO2)cc1C#N (some centres unmarked) [Example 77] | hROMK (hKir1.1) (Homo sapiens (Human), UniProt P48048) | 0.4 |
| N#Cc1cc([C@@H]2CN3CCN(C(=O)C4CCc5cc(-n6cnnn6)ncc54)C[C@H]3CO2)c(F)cc1F (some centres unmarked) [Example 68] | hROMK (hKir1.1) (Homo sapiens (Human), UniProt P48048) | 0.2 |
| N#Cc1c(F)ccc([C@@H]2CN3CCN(C(=O)C4CCc5nc(-n6cnnn6)ncc54)C[C@@H]3CO2)c1Cl (some centres unmarked) [Example 82] | hROMK (hKir1.1) (Homo sapiens (Human), UniProt P48048) | 0.14 |
| N#Cc1c(F)ccc([C@H]2CN3CCN(C(=O)C4CCc5nc(-n6cnnn6)ccc54)C[C@H]3CO2)c1Cl (some centres unmarked) [Example 28] | hROMK (hKir1.1) (Homo sapiens (Human), UniProt P48048) | 0.22 |
| N#Cc1cc([C@@H]2CN3CCN(C(=O)C4CCc5nc(-n6cnnn6)ncc54)C[C@@H]3CO2)ccc1F (some centres unmarked) [Example 80] | hROMK (hKir1.1) (Homo sapiens (Human), UniProt P48048) | 0.26 |
| COc1cc([C@@H]2CN3CCN(C(=O)C4CCc5nc(-n6cnnn6)ccc54)C[C@@H]3CO2)ccc1C#N (some centres unmarked) [Example 63] | hROMK (hKir1.1) (Homo sapiens (Human), UniProt P48048) | 0.74 |
| Cc1c(C#N)cccc1[C@@H]1CN2CCN(C(=O)C3CCc4cc(-n5cnnn5)ncc43)C[C@@H]2CO1 (some centres unmarked) [Example 94] | hROMK (hKir1.1) (Homo sapiens (Human), UniProt P48048) | 0.29 |
| Cc1c([C@@H]2CN3CCN(C(=O)C4CCc5cc(-n6cnnn6)ncc54)C[C@H]3CO2)ccc(F)c1C#N (some centres unmarked) [Example 44] | hROMK (hKir1.1) (Homo sapiens (Human), UniProt P48048) | 0.17 |

* * *

molecular target: UniProt:P48048; assay: Thallium Flux Assay (ROMK channel functional thallium flux, FLIPR-Tetra); details: HEK293 cells stably expressing hROMK (hKir1.1)
pIC50: −log10 of the molar value.
Below: a set of entries, each annotated with reported pIC50.
Readout label: pIC50

| Compound | Reported result |
| --- | --- |
| Cc1c([C@H]2CN3CCN(C(=O)C4CCc5cc(-n6cnnn6)ncc54)C[C@H]3CO2)ccc(F)c1C#N (single isomer, unassigned) [Example 35] | 6.74 |
| N#Cc1c(F)ccc([C@H]2CN3CCN(C(=O)C4CCc5cc(-n6cnnn6)ncc54)C[C@H]3CO2)c1F (some centres unmarked) | 7.00 |
| Cc1c([C@H]2CN3CCN(C(=O)C4CCc5nc(-n6cnnn6)ccc54)C[C@H]3CO2)ccc(F)c1C#N (some centres unmarked) [Example 4] | 6.34 |
| O=C1OCCc2cc([C@@H]3CN4CCN(C(=O)C5CCCc6nc(-n7cnnn7)ccc65)C[C@H]4CO3)ccc21 (some centres unmarked) | 6.33 |
| Cc1c([C@H]2CN3CCN(C(=O)C4CCc5cc(-n6cnnn6)ncc54)C[C@H]3CO2)ccc(F)c1C#N (some centres unmarked) [Example 36] | 6.18 |

* * *

Collected pIC50 values appear next to each entry.
Biological target: hROMK (hKir1.1) (Homo sapiens (Human), UniProt P48048)
Assay: Thallium Flux Assay (ROMK channel functional thallium flux, FLIPR-Tetra)
Conditions: HEK293 cells stably expressing hROMK (hKir1.1)
Method: HEK293 cells stably expressing hROMK (hKir1.1) were grown at 37° C. in a 10% CO2 humidified incubator in complete growth media: Dulbecco's Modified Eagle Medium supplemented with non-essential amino acids, Penicillin/Streptomycin/Glutamine, G418 and FBS. At >80% confluency, aspirate the media from the flask and rinse with 10 mL Calcium/Magnesium-free PBS. […] • 1. […] At FLIPR-Tetra 384: Add stimulant (Thallium/Potassium) solution to microplate and monitor fluorescence. […]
pIC50: −log10 of the molar value.
Readout label: pIC50

| Compound | Bound type | Reported result |
| --- | --- | --- |
| Cc1c([C@@H]2CN3CCN(C(=O)C4CCc5cc(-n6cnnn6)ncc54)C[C@H]3CN2)ccc(F)c1C#N (single isomer, unassigned) [Example 96B] | < | 6.00 |
| Cc1c([C@@H]2CN3CCN(C(=O)C4CCCc5nc(-n6cnnn6)ccc54)C[C@H]3CO2)ccc(F)c1C#N (some centres unmarked) [Example 11] | = | 6.44 |
| N#Cc1c(F)ccc([C@@H]2CN3CCN(C(=O)C4CCc5nc(-n6cnnn6)ccc54)C[C@@H]3CO2)c1Cl (some centres unmarked) [Example 65] | = | 6.47 |
| Cc1c([C@@H]2CN3CCN(C(=O)C4Cc5cnc(-n6cnnn6)nc5C4)C[C@@H]3CO2)ccc(F)c1C#N (some centres unmarked) | = | 6.60 |
| Cc1c([C@@H]2CN3CCN(C(=O)C4CCc5nc(-n6cnnn6)ncc54)C[C@@H]3CO2)ccc(F)c1C#N (single isomer, unassigned) [Example 2D] | = | 6.89 |
| COc1ccc([C@H]2CN3CCN(C(=O)C4CCc5cc(-n6cnnn6)ncc54)C[C@@H]3CO2)c(C)c1C#N (some centres unmarked) | = | 6.30 |
| N#Cc1c(F)ccc([C@H]2CN3CCN(C(=O)C4CCc5nc(-n6cnnn6)ncc54)C[C@@H]3CO2)c1Cl (some centres unmarked) | = | 6.44 |
| Cc1c([C@@H]2CN3CCN(C(=O)C4CCCc5nc(-n6cnnn6)ccc54)C[C@H]3CO2)ccc(F)c1C#N (some centres unmarked) [Example 10] | = | 6.39 |
